- System: MDR1 (P-gp)
- Assay details: MDCK-MDR1 permeability assay, blood-brain-barrier penetration potential
- Test context: dog, MDCK-MDR1, pH 7.4, MDCK-MDR1 Efflux Ratio
Endpoint label: efflux ratio at 120 min, 5 μM
Output spec: single numeric token, no unit.

Before answering, review these 4 worked examples.
Molecule	Reported result
Cc1cc(-c2ccc(-c3cnc(N(C)[C@@H]4CC5CC[C@H](N5)[C@@H]4F)cn3)c(O)c2)cc(=O)[nH]1 (single isomer, unassigned)	64
Oc1cc(-n2ccnn2)c(F)cc1-c1cnc(N(C2CC2)[C@@H]2CC3CC[C@H](N3)[C@@H]2F)cn1 (single isomer, unassigned)	7
CN(c1cnc(-c2ccc(-c3ccn(CF)c(=O)c3)cc2O)cn1)[C@@H]1CC2CC[C@H](N2)[C@@H]1F (single isomer, unassigned)	22
Oc1cc(-c2cn[nH]c2)c(F)cc1-c1cnc(N(C2CC2)[C@H]2C[C@@H]3CCC(N3)[C@H]2F)cn1 (single isomer, unassigned)	6

Please look at the following molecule next.
CN(c1cnc(-c2ccc(-c3ccn(C)c(=O)c3)cc2O)cn1)[C@@H]1CC2CC[C@H](N2)[C@@H]1F (single isomer, unassigned) yielded efflux ratio at 120 min, 5 μM of 37
